Every entry's value here was drawn from ChEMBL document CHEMBL1131203.

Assay: Ratio of IC50 towards CCK-A receptor and CCK-B receptor
// reported Ratio per item
Write the number on its own, no unit after it.

Below are worked cases with known answers.
COMPOUND	MEASURE	READING
CC1CCCCC1NC(=O)[C@@](C)(Cc1c[nH]c2ccccc12)NC(=O)OC1C2CC3CC(C2)CC1C3 (some centres undefined)	Ratio	71.4
C[C@](Cc1c[nH]c2ccccc12)(NC(=O)OC1C2CC3CC(C2)CC1C3)C(=O)NN1CCCCC1 (some centres undefined)	Ratio	194

Field Ratio (entry C[C@](Cc1c[nH]c2ccccc12)(NC(=O)OC1C2CC3CC(C2)CC1C3)C(=O)N[C@H](CO)Cc1ccccc1 (some centres undefined) ) reads 123

Field Ratio (entry C[C@](Cc1c[nH]c2ccccc12)(NC(=O)OC1C2CC3CC(C2)CC1C3)C(=O)NC1CCCCCC1 (some centres undefined) ) reads 71

====

Test: Absolute oral bioavailability was evaluated in 0.5% methylcellulose suspentionat a dose of 20 mg/kg orally
Type: ADME, organism-based
Details: eutheria, in vivo
MEASURE: bioavailability (%)
Reply numerically in %, unit not repeated.

Field bioavailability (entry C[C@](Cc1c[nH]c2ccccc12)(NC(=O)OC1C2CC3CC(C2)CC1C3)C(=O)N[C@@H]1CCCC[C@H]1O (stereo partly specified) ) reads 8.9

====

Below are IC50 values measured for UniProt:P30551.
Sequence (P30551 whole entry): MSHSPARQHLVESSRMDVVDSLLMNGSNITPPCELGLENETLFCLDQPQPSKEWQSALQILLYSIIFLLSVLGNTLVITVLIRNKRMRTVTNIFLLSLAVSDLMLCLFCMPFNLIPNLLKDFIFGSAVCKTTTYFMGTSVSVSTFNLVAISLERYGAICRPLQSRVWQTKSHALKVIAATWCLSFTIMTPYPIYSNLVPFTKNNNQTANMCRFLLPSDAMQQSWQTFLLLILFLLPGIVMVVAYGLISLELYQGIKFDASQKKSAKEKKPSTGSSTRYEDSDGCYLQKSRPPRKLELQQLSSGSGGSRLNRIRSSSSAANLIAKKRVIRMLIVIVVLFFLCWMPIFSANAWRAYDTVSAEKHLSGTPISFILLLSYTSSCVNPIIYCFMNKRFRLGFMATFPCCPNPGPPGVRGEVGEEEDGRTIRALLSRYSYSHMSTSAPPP
Reply numerically in µM, unit not repeated.

Below are worked cases with known answers.
COMPOUND	SCALE UNIT	IC50
C[C@](Cc1c[nH]c2ccccc12)(NC(=O)OC1C2CC3CC(C2)CC1C3)C(=O)N[C@@H]1CCCCC[C@H]1O (stereo not given in full)	µM	1.24
C[C@](Cc1c[nH]c2ccccc12)(NC(=O)OC1C2CC3CC(C2)CC1C3)C(=O)N[C@H]1CCCC[C@@H]1O (stereo not given in full)	µM	1.94
C[C@](Cc1c[nH]c2ccccc12)(NC(=O)OC1C2CC3CC(C2)CC1C3)C(=O)NC(Cc1ccccc1)Cc1ccccc1 (stereo not given in full)	µM	2.24

Fill in: UniProt:P30551 IC50 for C[C@](Cc1c[nH]c2ccccc12)(NC(=O)OC1C2CC3CC(C2)CC1C3)C(=O)NC1CCCCCC1 (stereo not given in full) = 3.23

Fill in: UniProt:P30551 IC50 for C[C@](Cc1c[nH]c2ccccc12)(NC(=O)OC1C2CC3CC(C2)CC1C3)C(=O)NN1CCCCCC1 (stereo not given in full) = 3.04

Fill in: UniProt:P30551 IC50 for COC(=O)C1(NC(=O)[C@@](C)(Cc2c[nH]c3ccccc23)NC(=O)OC2C3CC4CC(C3)CC2C4)CCCCC1 (stereo not given in full) = 1.99

Fill in: UniProt:P30551 IC50 for C[C@](Cc1c[nH]c2ccccc12)(NC(=O)OC1C2CC3CC(C2)CC1C3)C(=O)CNC1CCCCC1 (stereo not given in full) = 3.33

====

Experiment: Pharmacokinetic parameter tmax was evaluated in saline solution at a dose of 20 mg/kg orally
Assay type: ADME, organism-based
Parameters: dose 20 mg/kg, route oral
Conditions: in vivo, po
MEASURE: Tmax (h)
Reply numerically in h, unit not repeated.

Field Tmax (entry C[C@](Cc1c[nH]c2ccccc12)(NC(=O)OC1[C@H]2C[C@@H]3C[C@@H](C[C@H]1C3)C2)C(=O)NC[C@H](NC(=O)CCC(=O)O)c1ccccc1 (stereo partly specified) ) reads 2.3

====

Test: Maximum plasma concentration evaluated in 100% PEG solution at a dose of 20 mg/kg orally
Type: ADME, organism-based
Parameters: dose 20 mg/kg, route oral
Settings: po
MEASURE: Cmax (ng/mL)
Reply numerically in ng/mL, unit not repeated.

Field Cmax (entry C[C@](Cc1c[nH]c2ccccc12)(NC(=O)OC1C2CC3CC(C2)CC1C3)C(=O)N[C@H](CO)Cc1ccccc1 (stereo partly specified) ) reads 167

====

Experiment: Pharmacokinetic parameter tmax was evaluated in 10% PEG suspension at a dose of 20 mg/kg orally
Format: ADME, organism-based
Set-up: dose 20 mg/kg, route oral
Conditions: in vivo, po
MEASURE: Tmax (h)
Reply numerically in h, unit not repeated.

Field Tmax (entry C[C@](Cc1c[nH]c2ccccc12)(NC(=O)OC1C2CC3CC(C2)CC1C3)C(=O)N[C@@H]1CCCC[C@H]1O (stereo partly specified) ) reads 3.5

====

Assay: Maximum plasma concentration was evaluated in HP-beta-CD solution at a dose of 20 mg/kg orally
Format: ADME, organism-based
Design: dose 20 mg/kg, route oral
Conditions: po
MEASURE: Cmax (ng/mL)
Reply numerically in ng/mL, unit not repeated.

Field Cmax (entry C[C@](Cc1c[nH]c2ccccc12)(NC(=O)OC1C2CC3CC(C2)CC1C3)C(=O)N[C@@H]1CCCC[C@H]1O (stereo partly specified) ) reads 756

====

Test: Pharmacokinetic parameter AUC was evaluated in HP-beta-CD solution at a dose of 20 mg/kg orally
Assay type: ADME, organism-based
Set-up: dose 20 mg/kg, route oral
Conditions: in vivo, po
MEASURE: AUC (ng·h/mL)
Reply numerically in ng·h/mL, unit not repeated.

COMPOUND	MEASURE	READING
C[C@](Cc1c[nH]c2ccccc12)(NC(=O)OC1C2CC3CC(C2)CC1C3)C(=O)N[C@@H]1CCCC[C@H]1O (some centres not stated)	AUC	2130

Field AUC (entry C[C@](Cc1c[nH]c2ccccc12)(NC(=O)OC1C2CC3CC(C2)CC1C3)C(=O)N[C@H](CO)Cc1ccccc1 (some centres not stated) ) reads 1440

====

Target: Gastrin/cholecystokinin type B receptor (Mus musculus)
Sequence (P56481 whole entry): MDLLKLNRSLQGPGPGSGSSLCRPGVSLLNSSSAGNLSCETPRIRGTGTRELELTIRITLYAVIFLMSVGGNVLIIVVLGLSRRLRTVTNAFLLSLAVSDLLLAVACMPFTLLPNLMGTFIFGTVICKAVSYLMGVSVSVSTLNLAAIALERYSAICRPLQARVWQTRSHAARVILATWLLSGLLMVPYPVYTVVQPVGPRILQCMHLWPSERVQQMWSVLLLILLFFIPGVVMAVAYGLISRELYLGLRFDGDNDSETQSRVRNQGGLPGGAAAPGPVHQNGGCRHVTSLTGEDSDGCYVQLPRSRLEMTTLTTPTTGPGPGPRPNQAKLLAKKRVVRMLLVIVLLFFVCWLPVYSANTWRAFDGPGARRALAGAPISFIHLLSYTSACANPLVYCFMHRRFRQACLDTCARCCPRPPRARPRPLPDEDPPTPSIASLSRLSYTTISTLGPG
MEASURE: log10 IC50 (log10 of the value in nM)
Please interpret these as log10 of IC50 where IC50 is in nM.

Below are worked cases with known answers.
MOLECULE	READING
C[C@](Cc1c[nH]c2ccccc12)(NC(=O)OC1C2CC3CC(C2)CC1C3)C(=O)N[C@H](CO)Cc1ccccc1 (stereo partly drawn)	0.80
C[C@](Cc1c[nH]c2ccccc12)(NC(=O)OC1C2CC3CC(C2)CC1C3)C(=O)NN1CCCCCC1 (stereo partly drawn)	1.09
C[C@](Cc1c[nH]c2ccccc12)(NC(=O)OC1C2CC3CC(C2)CC1C3)C(=O)NC1CCCCC1C(=O)O (stereo partly drawn)	0.00
C[C@](Cc1c[nH]c2ccccc12)(NC(=O)OC1C2CC3CC(C2)CC1C3)C(=O)N[C@H]1CCCCC[C@@H]1O (stereo partly drawn)	1.41
C[C@](Cc1c[nH]c2ccccc12)(NC(=O)OC1C2CC3CC(C2)CC1C3)C(=O)NC1CC2CCC1C2 (stereo in doubt; 22)	2.22

Field log10 IC50 (entry C[C@](Cc1c[nH]c2ccccc12)(NC(=O)OC1C2CC3CC(C2)CC1C3)C(=O)NC1(CO)CCCC1 (stereo partly drawn) ) reads 2.43

Field log10 IC50 (entry COC[C@H]1CCCN1NC(=O)[C@@](C)(Cc1c[nH]c2ccccc12)NC(=O)OC1C2CC3CC(C2)CC1C3 (stereo partly drawn) ) reads 0.40

Field log10 IC50 (entry COC(=O)CC(CC(=O)OC)NC(=O)[C@@](C)(Cc1c[nH]c2ccccc12)NC(=O)OC1C2CC3CC(C2)CC1C3 (stereo partly drawn) ) reads 2.33

Field log10 IC50 (entry C[C@](Cc1c[nH]c2ccccc12)(NC(=O)OC1C2CC3CC(C2)CC1C3)C(=O)NC1(C(=O)O)CCCCC1 (stereo partly drawn) ) reads 1.92

Field log10 IC50 (entry C[C@](Cc1c[nH]c2ccccc12)(NC(=O)OC1C2CC3CC(C2)CC1C3)C(=O)NN1CCCCC1 (stereo partly drawn) ) reads 1.29

Field log10 IC50 (entry C[C@](Cc1c[nH]c2ccccc12)(NC(=O)OC1C2CC3CC(C2)CC1C3)C(=O)NC1CCCCC1 (stereo partly drawn) ) reads 1.70

Field log10 IC50 (entry C[C@](Cc1c[nH]c2ccccc12)(NC(=O)OC1C2CC3CC(C2)CC1C3)C(=O)CNC1CCCCC1 (stereo partly drawn) ) reads 2.50

Field log10 IC50 (entry COC[C@@H]1CCCN1NC(=O)[C@@](C)(Cc1c[nH]c2ccccc12)NC(=O)OC1C2CC3CC(C2)CC1C3 (stereo partly drawn) ) reads 1.82

====

Assay: Pharmacokinetic parameter half-life was evaluated in DMA:H2O solution at a dose of 20 mg/kg orally
Type: ADME, organism-based
Set-up: dose 20 mg/kg, route oral
Conditions: in vivo, po
MEASURE: half-life
Give me the value, and tack the unit on after it.

Field half-life (entry C[C@](Cc1c[nH]c2ccccc12)(NC(=O)OC1C2CC3CC(C2)CC1C3)C(=O)N[C@H](CO)Cc1ccccc1 (stereo partly specified) ) reads 2.3 h

====

Assay: Maximum plasma concentration was evaluated in saline solution at a dose of 20 mg/kg orally
Format: ADME, organism-based
Design: dose 20 mg/kg, route oral
Settings: po
MEASURE: Cmax (ng/mL)
Reply numerically in ng/mL, unit not repeated.

Field Cmax (entry C[C@](Cc1c[nH]c2ccccc12)(NC(=O)OC1[C@H]2C[C@@H]3C[C@@H](C[C@H]1C3)C2)C(=O)NC[C@H](NC(=O)CCC(=O)O)c1ccccc1 (stereo partly specified) [CI-988] ) reads 32
